Target: MMP-9 (catalytic domain, human, recombinant) (Homo sapiens, UniProt P14780)
Construct: MMP-9 (catalytic domain, human, recombinant); purchased BIOMOL International
Sequence (P14780 107-444 limits assumed): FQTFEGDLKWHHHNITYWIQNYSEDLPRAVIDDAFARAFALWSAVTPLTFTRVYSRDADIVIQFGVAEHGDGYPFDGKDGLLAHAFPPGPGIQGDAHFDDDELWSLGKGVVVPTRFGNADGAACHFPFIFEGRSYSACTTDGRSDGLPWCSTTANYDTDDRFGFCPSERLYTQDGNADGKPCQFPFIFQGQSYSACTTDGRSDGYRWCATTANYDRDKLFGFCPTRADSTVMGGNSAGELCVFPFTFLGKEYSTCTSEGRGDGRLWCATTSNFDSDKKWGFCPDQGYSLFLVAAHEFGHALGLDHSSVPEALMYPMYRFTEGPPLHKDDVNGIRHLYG
Experiment: MMP-9 inhibition assay of boronic ester proinhibitors (IC50; activation with H2O2)
Format: biochemical
Settings: active inhibitor; read-out: IC50 against MMP-9
pIC50: −log10 of the molar value.
Quantity: pIC50

Checklist item: pIC50 tested on MMP-9 (catalytic domain, human, recombinant) (Homo sapiens, UniProt P14780), entry O=C(NCc1ccc(-c2ccccc2)cc1)c1cccc(=O)n1O [1,2-HOPO-2] , value?
~5.22

----------
Biological target: MMP-9 (catalytic domain, human, recombinant) (Homo sapiens)
Construct: MMP-9 (catalytic domain, human, recombinant); purchased BIOMOL International
Test: MMP-9 fluorescence-based inhibition assay with and without β-glucosidase
Format: biochemical
Conditions: 1 mM for 2, 4 mM for 4, 125 μM for 6, 16 μM for 8
Quantity: inhibition of MMP-9 in the absence of β-glucosidase

INSERT INTO results (compound, endpoint_result) VALUES
  ('Cc1occc(=S)c1OC1OC(CO)C(O)C(O)C1O (stereo not shown)', 'attenuated inhibition'),
  ('O=c1ccccn1OC1OC(CO)C(O)C(O)C1O (stereo not shown)', 'attenuated inhibition'),
  ('Cc1occc(=O)c1OC1OC(CO)C(O)C(O)C1O (stereo not shown)', 'attenuated inhibition');
